# test target: Human Factor D (Homo sapiens (Human))
# Sequence (P00746 26-253): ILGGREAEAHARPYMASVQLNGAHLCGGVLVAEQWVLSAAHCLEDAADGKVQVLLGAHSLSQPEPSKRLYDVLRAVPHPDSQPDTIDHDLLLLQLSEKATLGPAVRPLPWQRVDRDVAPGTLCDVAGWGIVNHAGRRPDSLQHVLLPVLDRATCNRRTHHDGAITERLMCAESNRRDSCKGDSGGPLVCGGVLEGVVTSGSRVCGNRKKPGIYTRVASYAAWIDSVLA
# method notes: Human Factor D Assay
# Format: biochemical
# experimental context: read-out: IC50
test readout: IC50

Prompt line: Tell me the measured IC50 of CC(=O)c1nn(CC(=O)N2C[C@H](F)C[C@H]2C(=O)NC2CCN(C(=O)c3cn[nH]c3)CC2)c2ccc(-c3cnc(C)nc3)cc12 [Compound 261] , please.
Response line: < 1 µM

###

# test target: Human Factor D (Homo sapiens (Human))
# method notes: Human Factor D Assay
# Assay type: biochemical
# experimental context: Human Factor D 80 nM, substrate Z-L-Lys-SBzl; star classes; read-out: IC50
The reader will find reported IC50 values listed item by item below.

Prompt line: # input compound: Cc1cccc(NC(=O)[C@@H]2[C@H]3CC[C@H](C3)N2C(=O)Cn2cc(C(N)=O)c3cc(-c4n[nH]c5ccsc45)ccc32)n1 ; wanted: its IC50
Response line: > 10 µM

Prompt line: Consider the compound shown here: CC(=O)c1nn(CC(=O)N2C[C@@H](C)C[C@H]2C(=O)Nc2nc(Br)ccc2C)c2ccc(-c3cnc(C)nc3)cc12 What is its recorded IC50?
Response line: < 1 µM

Prompt line: What value of measured IC50 is listed for CC(=O)c1nn(CC(=O)N2C[C@H](F)C[C@H]2C(=O)Nc2cccc(Br)n2)c2ccc(-c3cnc(S(C)(=N)=O)nc3)cc12 (some centres unmarked) ?
Response line: < 1 µM

Prompt line: Name the reported IC50 value associated with the compound COc1ccc(N2C[C@@H]3CC[C@H]2C=C3c2ccc3c(c2)c(C(C)=O)nn3CC(=O)N2C[C@H](F)C[C@H]2C(=O)Nc2cccc(Br)n2)cc1
Response line: < 1 µM

Continue with the compound presented below.
Prompt line: Consider the compound CC(=O)c1nn(CC(=O)N2[C@H]3CC[C@H](CC3)[C@H]2C(=O)Nc2cccc(Br)n2)c2ccc(-c3cnc(C)nc3)cc12 and give its measured IC50.
Response line: < 1 µM
